Tested on: LXRb:RXRa (NR concentration 270 nM, RXRa partner concentration 90 nM)
Assay: PBM binding z-score (relative to random genomic background probes); higher = stronger binding; sequences stand for … in GC…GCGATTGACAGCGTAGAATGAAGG
# PBM binding z-score values compiled below
Give the figure by itself; no unit, no explanation.

Recorded PBM binding z-score, per entry:
# Sequence entry, PBM binding z-score
rows = [
    ("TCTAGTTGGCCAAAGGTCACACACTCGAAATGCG", 5.44),
    ("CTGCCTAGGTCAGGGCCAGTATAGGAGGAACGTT", 0.634),
    ("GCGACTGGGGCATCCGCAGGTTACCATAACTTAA", 0.722),
    ("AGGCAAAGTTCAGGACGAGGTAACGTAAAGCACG", 1.9),
    ("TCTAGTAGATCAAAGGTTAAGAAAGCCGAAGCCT", 1.98),
    ("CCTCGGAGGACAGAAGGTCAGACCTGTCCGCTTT", 1.3),
    ("ATCTCTAGGTAAGAGTCAGTTCAGTGAAGAACGC", 0.262),
    ("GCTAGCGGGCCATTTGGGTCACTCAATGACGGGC", -0.141),
]

[Q] Recall and state the measured PBM binding z-score for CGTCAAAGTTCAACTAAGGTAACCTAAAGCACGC .
[A] 4.4

[Q] Report PBM binding z-score for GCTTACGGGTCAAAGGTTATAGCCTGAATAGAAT
[A] 5.69

[Q] Provide PBM binding z-score value for the following sequence: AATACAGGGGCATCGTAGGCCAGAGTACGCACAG
[A] 1.04

[Q] Complete the entry with PBM binding z-score for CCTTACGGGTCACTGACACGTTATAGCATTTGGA
[A] 3.38

[Q] Item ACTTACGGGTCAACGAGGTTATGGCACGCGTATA : provide PBM binding z-score
[A] 4.51

These entries and their values trace back to the supplement of paper PMC6555819.
